Tested on: TK-10
Experiment: NCI 60 cell line panel screen (SRB)
Assay type: cell-based, human
Details: Renal Cancer, TK-10
quantity.measured: Log10GI50

CC1CCC2C(C)C(CC(O)(CC3OC4OC5(C)CCC6C(C)CCC(C3C)C46OO5)CS(=O)(=O)c3ccc(C(=O)O)cc3)OC3OC4(C)CCC1C32OO4 (stereo not drawn) [Compound 10c] = <−8.30
CC1CCC2C(C)C(CC(COC(=O)c3cc[n+]([O-])cc3)CC3OC4OC5(C)CCC6C(C)CCC(C3C)C46OO5)OC3OC4(C)CCC1C32OO4 (stereo not drawn) = <−8.30
C[C@@H]1CC[C@H]2[C@@H](C)C(=O)O[C@@H]3O[C@]4(C)CC[C@@H]1[C@]32OO4 = >−4.00

====

Tested on: 786-0
Experiment: NCI 60 cell line panel screen (SRB)
Format: cell-based, human
Conditions: 786-0 (Renal Cancer); TGI: PG=0
quantity.measured: Log10TGI50

C[C@@H]1CC[C@H]2[C@@H](C)C(=O)O[C@@H]3O[C@]4(C)CC[C@@H]1[C@]32OO4 [Artemisinin] = >−4.00 log10M
CC1CCC2C(C)C(CC(COC(=O)CCC(=O)O)CC3OC4OC5(C)CCC6C(C)CCC(C3C)C46OO5)OC3OC4(C)CCC1C32OO4 (centres unmarked) [Compound 8a, bis-trioxane primary succinate monoester] = >−4.30 log10M
CC(=O)O[C@H]1C(=O)[C@@]2(C)[C@H]([C@H](OC(=O)c3ccccc3)[C@]3(O)C[C@H](OC(=O)[C@H](O)[C@@H](NC(=O)c4ccccc4)c4ccccc4)C(C)=C1C3(C)C)[C@]1(OC(C)=O)CO[C@@H]1C[C@@H]2O [Paclitaxel, paclitaxel, reference compound] = >−4.00 log10M
CC1CCC2C(C)C(CC(COCC(=O)O)CC3OC4OC5(C)CCC6C(C)CCC(C3C)C46OO5)OC3OC4(C)CCC1C32OO4 (centres unmarked) [Compound 12b, bis-trioxane O-acetic acid] = >−4.30 log10M
C[C@@H]1CC[C@H]2[C@@H](C)C(CC(O)(CC3OC4O[C@]5(C)CC[C@H]6[C@H](C)CC[C@@H]([C@H]3C)C46OO5)c3ccc(C(=O)O)cc3)OC3O[C@]4(C)CCC1C32OO4 (some centres unmarked) [Compound 11b] = >−4.30 log10M

====

Tested on: HOP-62
Test: NCI 60 cell line panel screen (SRB)
Assay type: cell-based, human
Conditions: HOP-62 (Non-Small Cell Lung Cancer); TGI: PG=0
quantity.measured: Log10TGI50

CC1CCC2C(C)C(CC(COC(=O)CCC(=O)O)CC3OC4OC5(C)CCC6C(C)CCC(C3C)C46OO5)OC3OC4(C)CCC1C32OO4 (centres unmarked) [Compound 8a, bis-trioxane primary succinate monoester] = >−4.30 log10M
CC1CCC2C(C)C(CC(O)(CO)CC3OC4OC5(C)CCC6C(C)CCC(C3C)C46OO5)OC3OC4(C)CCC1C32OO4 (centres unmarked) [Compound 5, bis-trioxane vicinal diol] = −4.26 log10M
CC(=O)O[C@H]1C(=O)[C@@]2(C)[C@H]([C@H](OC(=O)c3ccccc3)[C@]3(O)C[C@H](OC(=O)[C@H](O)[C@@H](NC(=O)c4ccccc4)c4ccccc4)C(C)=C1C3(C)C)[C@]1(OC(C)=O)CO[C@@H]1C[C@@H]2O [Paclitaxel, paclitaxel, reference compound] = −4.80 log10M
C[C@@H]1CC[C@H]2[C@@H](C)C(CC(O)(COC(=O)CCC(=O)O)CC3OC4O[C@]5(C)CC[C@H]6[C@H](C)CC[C@@H]([C@H]3C)C46OO5)OC3O[C@]4(C)CCC1C32OO4 (some centres unmarked) [Compound 9, tertiary alcohol primary succinate ester] = >−4.30 log10M
C[C@@H]1CC[C@H]2[C@@H](C)C(CC(O)(CC3OC4O[C@]5(C)CC[C@H]6[C@H](C)CC[C@@H]([C@H]3C)C46OO5)c3ccc(C(=O)O)cc3)OC3O[C@]4(C)CCC1C32OO4 (some centres unmarked) [Compound 11b] = >−4.30 log10M
C[C@@H]1CC[C@H]2[C@@H](C)C(=O)O[C@@H]3O[C@]4(C)CC[C@@H]1[C@]32OO4 [Artemisinin] = >−4.00 log10M
CC1CCC2C(C)C(CC(COCC(=O)O)CC3OC4OC5(C)CCC6C(C)CCC(C3C)C46OO5)OC3OC4(C)CCC1C32OO4 (centres unmarked) [Compound 12b, bis-trioxane O-acetic acid] = >−4.30 log10M
CC1CCC2C(C)C(CC(COC(=O)c3cc[n+]([O-])cc3)CC3OC4OC5(C)CCC6C(C)CCC(C3C)C46OO5)OC3OC4(C)CCC1C32OO4 (centres unmarked) [Compound 13] = −4.91 log10M

====

Test system: OVCAR-5
Experiment: NCI 60 cell line panel screen (SRB)
Assay type: cell-based, human
Settings: OVCAR-5 (Ovarian Cancer); TGI: PG=0
quantity.measured: Log10TGI50 (log10M)

C[C@@H]1CC[C@H]2[C@@H](C)C(CC(O)(CC3OC4O[C@]5(C)CC[C@H]6[C@H](C)CC[C@@H]([C@H]3C)C46OO5)c3ccc(C(=O)O)cc3)OC3O[C@]4(C)CCC1C32OO4 (some centres unmarked) [Compound 11b] = −6.95
CC1CCC2C(C)C(CC(O)(CO)CC3OC4OC5(C)CCC6C(C)CCC(C3C)C46OO5)OC3OC4(C)CCC1C32OO4 (centres unmarked) = −4.33
CC(=O)O[C@H]1C(=O)[C@@]2(C)[C@H]([C@H](OC(=O)c3ccccc3)[C@]3(O)C[C@H](OC(=O)[C@H](O)[C@@H](NC(=O)c4ccccc4)c4ccccc4)C(C)=C1C3(C)C)[C@]1(OC(C)=O)CO[C@@H]1C[C@@H]2O [Paclitaxel, paclitaxel, reference compound] = −4.92

====

Test system: UACC-257
Experiment: NCI 60 cell line panel screen (SRB)
Type: cell-based, human
Settings: UACC-257 (Melanoma); TGI: PG=0
quantity.measured: Log10TGI50

C[C@@H]1CC[C@H]2[C@@H](C)C(CC(O)(COC(=O)CCC(=O)O)CC3OC4O[C@]5(C)CC[C@H]6[C@H](C)CC[C@@H]([C@H]3C)C46OO5)OC3O[C@]4(C)CCC1C32OO4 (stereo partly drawn) [Compound 9, tertiary alcohol primary succinate ester] = >−4.30 log10M
CC1CCC2C(C)C(CC(COC(=O)CCC(=O)O)CC3OC4OC5(C)CCC6C(C)CCC(C3C)C46OO5)OC3OC4(C)CCC1C32OO4 (stereo not drawn) [Compound 8a, bis-trioxane primary succinate monoester] = >−4.30 log10M
C[C@@H]1CC[C@H]2[C@@H](C)C(=O)O[C@@H]3O[C@]4(C)CC[C@@H]1[C@]32OO4 [Artemisinin] = >−4.00 log10M

====

Tested on: SK-OV-3
Experiment: NCI 60 cell line panel screen (SRB)
Format: cell-based, human
Settings: SK-OV-3 (Ovarian Cancer); LC50: PG=−50
quantity.measured: Log10LC50

C[C@@H]1CC[C@H]2[C@@H](C)C(CC(O)(CC3OC4O[C@]5(C)CC[C@H]6[C@H](C)CC[C@@H]([C@H]3C)C46OO5)c3ccc(C(=O)O)cc3)OC3O[C@]4(C)CCC1C32OO4 (stereo partly drawn) [Compound 11b] = >−4.30 log10M
CC1CCC2C(C)C(CC(O)(CO)CC3OC4OC5(C)CCC6C(C)CCC(C3C)C46OO5)OC3OC4(C)CCC1C32OO4 (stereo not drawn) [Compound 5, bis-trioxane vicinal diol] = >−4.00 log10M
CC1CCC2C(C)C(CC(COC(=O)CCC(=O)O)CC3OC4OC5(C)CCC6C(C)CCC(C3C)C46OO5)OC3OC4(C)CCC1C32OO4 (stereo not drawn) [Compound 8a, bis-trioxane primary succinate monoester] = >−4.30 log10M

====

Test system: NCI-H226
Test: NCI 60 cell line panel screen (SRB)
Format: cell-based, human
Conditions: Non-Small Cell Lung Cancer, NCI-H226
Consider the following molecules and their measured Log10GI50 readings.
quantity.measured: Log10GI50

CC1CCC2C(C)C(CC(COC(=O)CCC(=O)O)CC3OC4OC5(C)CCC6C(C)CCC(C3C)C46OO5)OC3OC4(C)CCC1C32OO4 (stereo not drawn) [Compound 8a, bis-trioxane primary succinate monoester] = <−8.30
C[C@@H]1CC[C@H]2[C@@H](C)C(=O)O[C@@H]3O[C@]4(C)CC[C@@H]1[C@]32OO4 = >−4.00
CC1CCC2C(C)C(CC(O)(CC3OC4OC5(C)CCC6C(C)CCC(C3C)C46OO5)CS(=O)(=O)c3ccc(C(=O)O)cc3)OC3OC4(C)CCC1C32OO4 (stereo not drawn) [Compound 10c] = <−8.30

====

System: MDA-MB231/ATCC
Assay: NCI 60 cell line panel screen (SRB)
Type: cell-based, human
Conditions: MDA-MB231/ATCC (Breast Cancer); LC50: PG=−50
quantity.measured: Log10LC50

CC1CCC2C(C)C(CC(CO)CC3OC4OC5(C)CCC6C(C)CCC(C3C)C46OO5)OC3OC4(C)CCC1C32OO4 (stereo not drawn) [Compound 4, bis-trioxane primary alcohol] = >−4.00 log10M
CC1CCC2C(C)C(CC(COC(=O)CCC(=O)O)CC3OC4OC5(C)CCC6C(C)CCC(C3C)C46OO5)OC3OC4(C)CCC1C32OO4 (stereo not drawn) [Compound 8a, bis-trioxane primary succinate monoester] = >−4.30 log10M
C[C@@H]1CC[C@H]2[C@@H](C)C(=O)O[C@@H]3O[C@]4(C)CC[C@@H]1[C@]32OO4 [Artemisinin] = >−4.00 log10M
